Overview of recorded pKi for various compounds
target: Serine/threonine-protein kinase mTOR (Homo sapiens, UniProt P42345); experiment: Inhibition of alexa fluor 647-labeled kinase tracer 314 binding to recombinant human N-terminal GST-tagged mTOR (1360 to 2549 residues) expressed in baculovirus expression system measured after 60 mins by TR-FRET based LanthaScreen Eu kinase binding assay
In textbook form, pKi equals minus log to base ten of the concentration in mol/L.

Answered examples (4):
# CHEMICAL_STRUCTURE, TARGET_UNDER_TEST, pKi
rows = [
    ("C[C@@H]1COCCN1c1nc(-c2cnc(N)cc2C(F)F)nc(N2CCOCC2)n1", "Serine/threonine-protein kinase mTOR (Homo sapiens, UniProt P42345)", 8.10),
    ("C[C@@H]1CN(c2nc(-c3cnc(N)cc3C(F)F)nc(N3CCOC[C@H]3C)n2)C[C@H](C)O1", "Serine/threonine-protein kinase mTOR (Homo sapiens, UniProt P42345)", 7.38),
    ("C[C@@H]1COCCN1c1nc(-c2cnc(N)cc2C(F)F)nc(N2CCOC[C@H]2C)n1", "Serine/threonine-protein kinase mTOR (Homo sapiens, UniProt P42345)", 7.85),
    ("C[C@@H]1COCCN1c1nc(-c2cnc(N)cc2C(F)F)nc(N2CCOC[C@@H]2CO)n1", "Serine/threonine-protein kinase mTOR (Homo sapiens, UniProt P42345)", 7.55),
]

Give pKi for C[C@@H]1COCCN1c1nc(-c2cnc(N)cc2C(F)F)nc(N2[C@H](C)COC[C@@H]2C)n1 tested on Serine/threonine-protein kinase mTOR (Homo sapiens, UniProt P42345).
8.44

Give pKi for C[C@@H]1COCCN1c1nc(-c2cnc(N)cc2C(F)F)nc(N2CCOC[C@@H]2C)n1 tested on Serine/threonine-protein kinase mTOR (Homo sapiens, UniProt P42345).
7.96

Give pKi for C[C@@H]1COCCN1c1nc(-c2cnc(N)cc2C(F)F)nc(N2[C@H](C)COC[C@H]2C)n1 tested on Serine/threonine-protein kinase mTOR (Homo sapiens, UniProt P42345).
7.60

Give pKi for C[C@@H]1COCCN1c1nc(-c2cnc(N)cc2C(F)F)nc(N2C3COCC2C3)n1 tested on Serine/threonine-protein kinase mTOR (Homo sapiens, UniProt P42345).
7.14

Give pKi for C[C@@H]1COCCN1c1nc(-c2cnc(N)cc2C(F)F)nc(N2CCOC[C@H]2CO)n1 tested on Serine/threonine-protein kinase mTOR (Homo sapiens, UniProt P42345).
7.30

Give pKi for COC[C@@H]1COCCN1c1nc(-c2cnc(N)cc2C(F)F)nc(N2CCOC[C@H]2C)n1 tested on Serine/threonine-protein kinase mTOR (Homo sapiens, UniProt P42345).
7.64
